Test system: E. coli D31m4
Assay: MIC by broth dilution method (Table 4)
Assay type: cell-based
Set-up: unit not given here
Settings: E. coli D31m4* Tc^r, lipopolysaccharide-deficient mutant; 18 hours
measure.name: Antibacterial activity (minimum inhibitory concentration)
Reply briefly: the number, and no unit.

>>> df
                                   compound  observed_result
0  CCC(=O)OC1C2C(=C(O)C3(O)C(=O)C(C(N)=O)=C(O)C(N(C)C)C13)C(=O)c1c(ccc(C(C)(C)C)c1O)C2C (stereo not drawn)             6.25
1  CC1c2ccc(C3(C)CCCCC3)c(O)c2C(=O)C2=C(O)[C@]3(O)C(=O)C(C(N)=O)=C(O)[C@@H](N(C)C)C3C(O)C21 (stereo partly drawn)               25
2  CC(=O)OC1C2C(=C(O)C3(O)C(=O)C(C(N)=O)=C(O)C(N(C)C)C13)C(=O)c1c(ccc(C(C)(C)C)c1O)C2C (stereo not drawn)             3.12
3  CC1c2ccc(C(C)(C)CCCN(C)C)c(O)c2C(=O)C2=C(O)[C@]3(O)C(=O)C(C(N)=O)=C(O)[C@@H](N(C)C)C3C(O)C21 (stereo partly drawn)               50
4  CC(=O)OC(CCC(C)C)c1ccc2c(c1O)C(=O)C1=C(O)C3(O)C(=O)C(C(N)=O)=C(O)C(N(C)C)C3C(O)C1C2C (stereo not drawn)             3.12

Exam item: Return the recorded Antibacterial activity (minimum inhibitory concentration) value; entry: CC1c2ccc(C3(C)CCC3)c(O)c2C(=O)C2=C(O)[C@]3(O)C(=O)C(C(N)=O)=C(O)[C@@H](N(C)C)C3C(O)C21 (stereo partly drawn)
Marked response: 6.25

Just for reference, patent US20040152674A1 is where these values come from.
